molecular target: Aβ (Homo sapiens, UniProt P05067); construct: Aβ1-42 peptide was purchased from American Peptide Co; purchased American Peptide Co. (Sunnyvale, Calif.); assay: CPBBA displacement of radiolabeled 22R-hydroxycholesterol from Aβ (Example II); type: binding; conditions: 100 μM unlabeled compound; 50 μM Aβ
Sequence (P05067 672-713): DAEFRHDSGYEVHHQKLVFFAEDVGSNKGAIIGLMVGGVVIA
Classify as follows. Reported displacement of radiolabeled 22R-hydroxycholesterol binding to Aβ greater than or equal to 40%: 1. Reported displacement of radiolabeled 22R-hydroxycholesterol binding to Aβ below: -1.

Query :: Does displacement of radiolabeled 22R-hydroxycholesterol binding to Aβ meet or surpass 40% for CCCCCC(=O)O[C@H]1CC[C@@]2(C)C(=CC[C@H]3[C@@H]4C[C@@H]5O[C@@]6(CC[C@H](C)CO6)[C@@H](C)[C@@H]5[C@@]4(C)CC[C@@H]32)C1 ?
Result :: -1

Query :: Does displacement of radiolabeled 22R-hydroxycholesterol binding to Aβ meet or surpass 40% for CC1CCC2(OC1)OC1CC3C4CC=C5CC(O)C(O)CC5(C)C4CCC3(C)C1C2C (centres unmarked) ?
Result :: -1

Query :: Does displacement of radiolabeled 22R-hydroxycholesterol binding to Aβ meet or surpass 40% for CC(C)CC[C@@H](O)[C@@H](C)[C@H]1CC[C@H]2[C@@H]3CC=C4C[C@@H](O)CC[C@]4(C)[C@H]3CC[C@]12C [SP222, 22R-hydroxycholesterol] ?
Result :: 1

Query :: Does displacement of radiolabeled 22R-hydroxycholesterol binding to Aβ meet or surpass 40% for CCC(=O)O[C@H]1CC[C@@]2(C)C(=CC[C@H]3[C@@H]4C[C@@H]5O[C@@]6(CC[C@H](C)CN6C(C)=O)[C@@H](C)[C@@H]5[C@@]4(C)CC[C@@H]32)C1 ?
Result :: 1

Query :: Does displacement of radiolabeled 22R-hydroxycholesterol binding to Aβ meet or surpass 40% for CC(=O)OC1CC[C@@]2(C)C(=CC[C@H]3[C@@H]4CC(OC(C)=O)[C@H]([C@H](C)C(CCC(C)CN(C(C)=O)C(C)=O)OC(C)=O)[C@@]4(C)CC[C@@H]32)C1 (some centres unmarked) ?
Result :: 1
